Tested on: MS2 coat protein
Test: apparent KD of MS2 coat protein, switch OFF state (with FMN for OFF switches, without FMN for ON switches); designed switch direction (-1 OFF switch, 1 ON switch): 1; higher = weaker reporter binding
Conditions: FMN input: 0 or 200 uM; Eterna round: R93 (includes R88 designs)
Class satisfied: apparent KD of MS2 coat protein at least 40 nM. Class not satisfied: apparent KD of MS2 coat protein below 40 nM.

Solved entries:
# Sequence input, Answer label
records = [
    ("GAAAAACAUGAGGAUCACCCAUGUGUAAAUAUGGGAGGAUAUACAAAGACGAAAGUCAAAGUAGAAGGCCUAAAAG [Mat - Same State 1 - Eli mod - D5]", "satisfied"),
    ("AACAAUCUAUCUGAGGAUAUCAUGUAAAAAACAUGAGGAUCACCCAUGUGCAGGAAAACUGCAUAUGAGAAGGCAGAUAGAUUGA [SS2 :P - 600]", "satisfied"),
    ("AGAAAUAAAAGAGAGGAUAUCCAAAAGAAAACAUGAGGAUCACCCAUGUAAAAGAAAAUAAAAUGGGAGAAGGCUCAUGAUAAAG [JL In the Red Helter Skelter 2 mod 1]", "not satisfied"),
    ("AGAAAUAAAAGCGAGGAUAUCCAAAAGAAAACAUGAGGAUCACCCAUGUAAAAGAAAAUAAAAUGGGAGAAGGCGCAAAAUAAAG", "not satisfied"),
    ("AGGAAACAUGAGGAUCACCCAUGUAUAAAAAUGGGAGGAUAUACAAAGACGAAAGUCAAAGUAGAAGGCCUAAAAA [76%, Meechl, 7]", "satisfied"),
]

Shift focus to the following entry.
Could you tell me if the measured apparent KD of MS2 coat protein of GGAGUACAUGAGGAUCACCCAUGUUGGAACAAAGUAGGAUAUGUACAAUAUUAAAUAAAAACAGAAGGACUAAGAA [Gold Rush] reaches 40 nM or more?
not satisfied

====

Test system: K4 kissing-loop RNA reporter;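 further: bound reporter read as fluorescence of individual clusters on recovered sequencing chips by microscopy, with normalized cluster intensities fitted with a binding model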
Test: apparent KD of K4 kissing-loop reporter; higher = weaker reporter binding
Conditions: Eterna round: R107; input ligand: tryptophan 2.4 mM
Class Fulfilled: apparent KD of K4 kissing-loop reporter at least 100 nM. Class Not fulfilled: apparent KD of K4 kissing-loop reporter below 100 nM.

# Sequence input, Answer label
measured = [
    ("AAGUCAUAUAGAAGGAGCGUGUUUUUUAAUUUGUUUUCAUGAUCGAGUGAUGUUCGAUAUACACAGGUAGGUCGCUGUAUAAUAA [hbob_SS_Arginine_B_2t142]", "Fulfilled"),
    ("AAAUAGAUCAGUCACCCAGUGAUGUUGGAAGGAGCGUGCGAAAGCACAGGUAGGUCGCCAUAAUAAAAGUGGCUGAUCAAAAUAA", "Fulfilled"),
]

Could you tell me if the measured apparent KD of K4 kissing-loop reporter of UAAAUCACACGAGAUACCAGCCAAACCGAACUUGAGCACUAUAGUGAUGUUAUAUUGCGAGGCCCUUGGCAGCUCAAUAGAACAA [theeternabot_sameState_KL_Theo_B_11] reaches 100 nM or more?
Fulfilled

====

System: MS2 coat protein
Experiment: apparent KD of MS2 coat protein; higher = weaker reporter binding
Details: Eterna round: R107; input ligand: tryptophan 2.4 mM
Class True: apparent KD of MS2 coat protein at least 20 nM. Class False: apparent KD of MS2 coat protein below 20 nM.

Solved entries:
# Sequence input, Answer label
data = [
    ("AACAUGAGGAUCACCCAUGUUGUAAGGGAAGGAGCGCCUAAUCAGGCAGGUAGGUCGCCCAACAUGAGGAUCACCCAUGUUGUAU [Exclusion Arginine A 2]", "True"),
    ("GGCGCGAGCCAACAUGAGGAUCACCCAUGUCGAGGACCGGUACGGCCGCCACUCGAACGAGUGAAGCGCGCGCGCGCGCGCGCGC [Uaa]", "True"),
    ("AACCGAGGCUAUCCACAAAGAAAAUGUGAUACCAGAAUAAUUUUAUUCCCUUGGCAGCAUGACAUGAGGAUCACCCAUGUGUCUU [SSTheo A #5]", "True"),
]

Could you tell me if the measured apparent KD of MS2 coat protein of GGAGCUACGUCGGCCGCCACUAGCGGGUAUUGCGUGUACAUGAGGAUCACCCAUGUAAUACGGCCUAGGACCGGGACGUAGCUCC [Raven] reaches 20 nM or more?
False

Could you tell me if the measured apparent KD of MS2 coat protein of UGUAUGUGAUCUGAUACCAGCGAUGAUAACCUGAGGAUCACCCUGGUAUGGCGAAAGCCUCGCCCUUGGCAGCAGAUCGCAUACU reaches 20 nM or more?
True

Could you tell me if the measured apparent KD of MS2 coat protein of AAGAACCAGACGGCCGCCACUGGCCAGACAGGGUUCAUGGAAACAUGAGGAUCACCCAUGUCUUCCAGGACCGGGUCUGAAGAGG [Esbiisin] reaches 20 nM or more?
False

Could you tell me if the measured apparent KD of MS2 coat protein of UCGCCCAGAAAGGAUUGCUGGGAUAUGGAAGGAGCGCUGAUGCCAGCAGGUAGGUCGCCAACGGACAUGAGGAUCACCCAUGUAC [Same State - Arginine A (Freestyle 6)] reaches 20 nM or more?
True

Could you tell me if the measured apparent KD of MS2 coat protein of GGUAGACGGACGGCCGCCACUCACAUGAGGAUCACCCAUGUAUAGUUGGUAAUCUGGGUUCAGGAGAGGACCGGGUCCUUGUCAG [theeternabot_exclusion_MS2_Trp_B_43] reaches 20 nM or more?
True

Could you tell me if the measured apparent KD of MS2 coat protein of UCCACAUGAGGAUCACCCAUGUGCCAUGAUACCAGACAUGAAAAUGUCCCUUGGCAGCAUGAGUGAGGCAUCCGAAAGGAUGCCU [Chrlice] reaches 20 nM or more?
True

Could you tell me if the measured apparent KD of MS2 coat protein of AGCACUGUGACGGCCGCCACUAUAUUAGGGUGGUAAGGUUCAUAAAUACAUGAGGAUCACCCAUGUAGGACCGGGUCUCAGUGCA [Omei Trp Exc B A v2] reaches 20 nM or more?
False

Could you tell me if the measured apparent KD of MS2 coat protein of GAUCCUCAUACGGAUACCAGCGAAUAACAUGAGGAUCACCCAUGUAAUAAAGAAAAUAAAUGCCCUUGGCAGCCGAAUAGAUAGU [Same State Theophylline B GF 1] reaches 20 nM or more?
True

Could you tell me if the measured apparent KD of MS2 coat protein of GUACAUGAGGAUCACCCAUGUAUAGUUGAAGGAGCGACCAGAGGGUCAGGUAGGUCGCAGCACAUGGCGUAAACCCGUGUAUGCC [#1 Exclusion - Arginine A Attempt #23 (Inspired by Pi)] reaches 20 nM or more?
True
